- TEST_SUMMARY: chemical genetic growth profiling, strain panel (AID 1159580);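 further: tested at 20 µM; growth read once vehicle control cultures reached saturation at 30 °C; 1 = growth at the plate median or of vehicle wells; lower values mean less growth of the strain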
- MEASUREMENT_SETUP: S. cerevisiae deletion strains, growth OD, locus YKL009W, strain mrt4, active compounds read low
The whole screen tested about 5,500 compounds, of which about 2,000 (36%) were called active. Another 18% or so got no clear call; they are omitted. This is one part of the list.
Field: normalized growth. Provide a value for each of the compounds that follow.

*Q* Name the reported normalized growth value associated with the compound CC1CC2C3CCC4=CC(=O)C=C[C@]4(C)[C@@]3(F)[C@@H](O)C[C@]2(C)[C@@]1(O)C(=O)CO (some centres not stated)
*A* 0.963 (inactive)

*Q* Look up normalized growth: CCC(C)C(=O)O[C@H]1[C@H](O)C2C(CN3CC(C)CCC3[C@@]2(C)O)C2C[C@]34O[C@]5(O)C(OC(=O)C(C)(O)C(C)O)CC[C@@]3(C)C5C(OC(C)=O)[C@@H](OC(C)=O)C4[C@@]21O (some centres not stated)
*A* 1 (inactive)

*Q* Entry `COc1ccc2c(c1)O[C@@H]1COc3cc(OC)c(OC)cc3[C@@H]1C2=O` : reported normalized growth = ?
*A* 1.01 (inactive)

*Q* Item under review: ClC1=C(Cl)C2(Cl)C3C(Cl)C=CC3C1(Cl)C2(Cl)Cl (configuration not stated) . Reported normalized growth?
*A* 0.957 (inactive)

*Q* I have this compound here, `CC(=O)N[C@@H](CC(C)C)C(=O)O` , and I need its recorded normalized growth.
*A* 0.962 (inactive)

*Q* Form field: reported normalized growth of COc1ccc(OC)c(C(O)C(C)N)c1 (configuration not stated)
*A* 0.995 (inactive)

*Q* What value of normalized growth has been reported for the following compound? CC1/C(=N\O)C[C@@H]2C[C@H]1C2(C)C (some centres not stated)
*A* 0.995 (inactive)

*Q* I would be grateful if you could share the reported normalized growth for `COc1ccc2cc([C@H](C)C(=O)O)ccc2c1` .
*A* 0.916 (inactive)

*Q* Using the record for `O=C(CC[N+](=O)[O-])OC[C@H]1O[C@@H](O)[C@H](OC(=O)CC[N+](=O)[O-])[C@@H](OC(=O)CC[N+](=O)[O-])[C@@H]1OC(=O)CC[N+](=O)[O-]` , report its normalized growth.
*A* 0.993 (inactive)

*Q* I have this compound here, `CC(C)(O)[C@@H]1[C@H]2OC(=O)[C@@H]1[C@]1(O)C[C@H]3O[C@]34C(=O)O[C@H]2[C@]14C` , and I need its recorded normalized growth.
*A* 1.02 (inactive)

*Q* // lookup normalized growth for CC(NCCc1ccc(O)cc1)C(O)c1ccc(O)cc1 (configuration not stated)
*A* 0.977 (inactive)

*Q* Any idea what its normalized growth is? The compound is `COc1ccc2cc([C@H](C)CO)ccc2c1`
*A* 0.935 (inactive)

*Q* Which normalized growth value belongs to CC(=O)NC1SCCC1=O (configuration not stated) ?
*A* 0.999 (inactive)

*Q* For the compound shown here, `C=C(C)[C@@H]1[C@H]2OC(=O)[C@@H]1[C@]1(O)C[C@H]3O[C@]34C(=O)O[C@H]2[C@]14C` , give the reported normalized growth.
*A* 0.96 (inactive)

*Q* Could you share which normalized growth value was measured for `S=c1nc[nH]c2nc[nH]c12` ?
*A* 0.987 (inactive)

*Q* Given C[C@]12CC(=O)C3C(CC[C@@H]4C[C@H](O)CC[C@]34C)C1CC[C@]2(O)C(=O)CO (some centres not stated) , state its recorded normalized growth.
*A* 1.1 (inactive)

*Q* Name the recorded normalized growth for CCOC(=O)C(=O)C1(C(=O)OCC)Oc2cc(OC)cc(OC)c2C(=O)C1c1ccccc1 (configuration not stated) .
*A* 0.899 (inactive)

*Q* // lookup normalized growth for CC(C(=O)O)c1cccc(Oc2ccccc2)c1 (configuration not stated)
*A* 0.879 (inactive)

*Q* What value of normalized growth has been recorded for this entry: C[C@H]1OC(n2cc(F)c(=O)[nH]c2=O)C(O)[C@@H]1O (some centres not stated)
*A* 0.959 (inactive)

*Q* Recorded normalized growth for `COc1ccc2c(c1OC)C(=O)O[C@@H]2[C@H]1c2cc3c(cc2CCN1C)OCO3` , please?
*A* 1.03 (inactive)

*Q* normalized growth lookup needed for `COc1cc(NS(=O)(=O)c2ccc(N)cc2)nc(OC)n1` , thanks.
*A* 0.985 (inactive)

*Q* Entry `CC(=O)OC(C)(C)[C@@H]1Cc2cc3ccc(=O)oc3cc2O1` has what normalized growth?
*A* 1.03 (inactive)

*Q* I'd like to know its normalized growth. The compound in question is CCN(CC)CCCC(C)Nc1ccnc2cc(Cl)ccc12 (configuration not stated)
*A* 1.03 (inactive)

*Q* Look at this compound and give its reported normalized growth. CC(N)CCCC(C)(C)O (configuration not stated)
*A* 0.985 (inactive)

*Q* Dear colleague, I am looking for the recorded normalized growth of the following compound: `CC1(C)OC(=O)NC1=O`
*A* 0.966 (inactive)

*Q* Bench note: what normalized growth did `c1ccc(N=Nc2ccccc2)cc1` show?
*A* 1 (inactive)

*Q* Give the measured normalized growth of CCOC(=O)C1(O)Oc2cc(OC)cc(OC)c2C(=O)C1c1ccccc1 (configuration not stated) .
*A* 0.985 (inactive)

*Q* Find the recorded normalized growth belonging to `COc1ccc2c(C)cc(=O)oc2c1` and report it.
*A* 1.02 (inactive)

*Q* Reported normalized growth for CC(CCc1ccccc1)NC(C)C(O)c1ccc(O)cc1 (configuration not stated) : what is it?
*A* 0.988 (inactive)

*Q* Quick one: normalized growth of `CCOC(=O)[C@H](CCc1ccccc1)N[C@H]1CCc2ccccc2N(CC(=O)O)C1=O` ?
*A* 1 (inactive)

*Q* Give its normalized growth value. Item: CC1(C)C(C=C(Cl)Cl)C1C(=O)OC(C#N)c1cccc(Oc2ccccc2)c1 (configuration not stated)
*A* 0.96 (inactive)

*Q* Consider the compound shown here: `CN(C)CC/C=C1\c2ccccc2Sc2ccc(Cl)cc21` What is its recorded normalized growth?
*A* 0.989 (inactive)

*Q* Look up normalized growth for this compound: C[C@]12CCC(=O)C=C1CCC1C2CC[C@@]2(C)C1CC[C@@H]2O (some centres not stated)
*A* 0.957 (inactive)

*Q* # lookup: normalized growth of `COc1cc2c(cc1OC)Cc1cc(OC)c(OC)cc1Cc1cc(OC)c(OC)cc1C2`
*A* 0.942 (inactive)

*Q* Find the recorded normalized growth belonging to CCS(=O)CCSP(=O)(OC)OC (configuration not stated) and report it.
*A* 0.977 (inactive)

*Q* Look up normalized growth for this compound: C=C1C([C@]2(C)C(CC(=O)OC)[C@@](C)(COC(C)=O)OC(=O)C[C@@H]2OC(C)=O)[C@@H](OC=O)[C@H](OC(=O)C(O)C(C)CC)[C@@]2(C)[C@H](c3ccoc3)CC(=O)C12O (some centres not stated)
*A* 0.994 (inactive)

*Q* Quick one: normalized growth of `COc1ccc2c(c1OC)C(=O)O[C@H]2[C@H]1c2cc3c(cc2CCN1C)OCO3` ?
*A* 1.03 (inactive)

*Q* Given the compound `COc1cc2c(cc1OC)[C@@H]1C(=O)c3ccc(OC)c(CC=C(C)C)c3O[C@@H]1CO2` , what is its reported normalized growth?
*A* 1.04 (inactive)

*Q* Entry CCN(CCO)CCCC(C)Nc1ccnc2cc(Cl)ccc12 (configuration not stated) has what normalized growth?
*A* 1.03 (inactive)

*Q* Which normalized growth is listed for CC[C@H](/C=C/C(C)C1CCC2C3CCC4=CC(=O)CC[C@]4(C)C3CC[C@]12C)C(C)C (some centres not stated) ?
*A* 1.04 (inactive)

*Q* Please report the recorded normalized growth for `COc1cc2c(cc1OC)[C@@H]1C(=O)c3ccc4oc(C(C)C)cc4c3O[C@@H]1CO2` .
*A* 0.918 (inactive)

*Q* Entry `COc1ccc2c(c1)OCc1c-2oc2cc(OC)ccc12` has what normalized growth?
*A* 1.02 (inactive)
